Biological target: T1, recombinant human OX40-his (Sino Biological, Cat#:10481-H03H) (human, UniProt P43489 29-214)
T1 construct: bought protein; also called hOX40-his; not shown: His tag
T1 sequence: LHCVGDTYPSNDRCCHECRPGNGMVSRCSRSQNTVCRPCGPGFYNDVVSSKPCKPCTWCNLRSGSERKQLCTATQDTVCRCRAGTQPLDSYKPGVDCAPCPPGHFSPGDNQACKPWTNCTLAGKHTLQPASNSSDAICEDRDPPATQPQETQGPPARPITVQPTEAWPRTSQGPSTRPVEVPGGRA
Assay: SPR Biacore 8K, OX40-His on chip, antibody injected
// reported koff for each item listed
Respond numerically; units are s⁻¹ and should not be typed.

Solved entries (count: 2):
IN: // koff lookup, key: 71H8-VH3VL3 (antibody, human IgG1, kappa, V domains shown, humanized; also called 71H8-H3L3) VH: QVQLVQSGAEVKKPGASVKVSCKVSGYTFTSYWITWVRQRPGQGLEWIGDIYPGSGSTNQNEKFKSRVTLTVDTSTDTAYMELSSLRSEDTAVYYCATLRPYYFVYWGQGTLVTVSS VL: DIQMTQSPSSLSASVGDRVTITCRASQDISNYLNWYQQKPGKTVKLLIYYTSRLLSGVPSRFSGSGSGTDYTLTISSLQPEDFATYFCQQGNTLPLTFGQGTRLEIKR
OUT: 0.00207

IN: // koff lookup, key: 71H8-VH0VL0 (antibody, human IgG1, kappa, V domains shown, humanized; also called 71H8-H0L0) VH: QVQLVQSGAEVKKPGASVKVSCKVSGDTFTSYWITWVRQAPGKGLEWMGDIYPGSGSTNQNEKFKSRVTMTEDTSTDTAYMELSSLRSEDTAVYYCATLRPYYFVYWGQGTLVTVSS VL: DIQMTQSPSSLSASVGDRVTITCRASQDISNYLNWYQQKPGKAPKLLIYYTSRLLSGVPSRFSGSGSGTDFTLTISSLQPEDFATYYCQQGNTLPLTFGQGTRLEIKR
OUT: 0.00274

***
IN: // koff lookup, key: chimeric antibody 68C8 (antibody, human IgG1, kappa, V domains shown, mouse variable regions with human IgG1/kappa constant regions) VH: QVQLQQSGAELVKPGASVKMSCKASGDTFTSYWITWVKQRPGQGLEWIGDIHPGSGSTNNNEKFKNKATLTVDTSSSTAYMQLSSLTSEDSAVYYCAKLRPYYFVYWGQGTTLTVSS VL: DIQMTQTTSSLSASLGDRVTISCRASQDISNYLNWYQQKPDGTVKLLIYYTSRLLSGVPSRFSGSGSGTDYSLTISNLEQEDIATYFCQQGNTLPLTFGAGTRLELKR
OUT: 7.35e-05
